The reported numbers originate from the supplement of paper PMC6757056.

B1: library; a variant is named by its letters at N, in order (parent)
chain: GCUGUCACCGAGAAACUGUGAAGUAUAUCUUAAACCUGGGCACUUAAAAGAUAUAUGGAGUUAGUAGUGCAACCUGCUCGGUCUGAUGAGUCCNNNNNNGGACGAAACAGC

Variants of: B1
Experiment: normalized RNA/DNA level without ligand (relative to sTRSVctl = 100) (log10 (% of sTRSVctl)); HEK293T; ligand: cyclic di-GMP (c-di-GMP-II aptamer); higher = less ribozyme self-cleavage, higher mRNA level
Conditions: reporter: mCherry (pCS4076), ligand present: no
The entries below are paired with their reported normalized RNA/DNA level without ligand (log10).
quantity.kind: normalized RNA/DNA level without ligand (log10)

- mutation.name: "CUGGAC"
  result.value: 1.63
- mutation.name: "GAUGCC"
  result.value: 1.77
- mutation.name: "CAAUAC"
  result.value: 1.59
- mutation.name: "UCAAUA"
  result.value: 1.4
- mutation.name: "CUGCUU"
  result.value: 1.6
- mutation.name: "AUAAUG"
  result.value: 1.58
- mutation.name: "GAUGGA"
  result.value: 1.42
- mutation.name: "AGCAGA"
  result.value: 1.56
- mutation.name: "ACUCGC"
  result.value: 1.73
- mutation.name: "GAUACU"
  result.value: 1.7
- mutation.name: "UUCCGA"
  result.value: 1.79
- mutation.name: "AAUGGG"
  result.value: 1.4
- mutation.name: "UUAGUU"
  result.value: 1.77
- mutation.name: "CUAGGU"
  result.value: 1.7
- mutation.name: "CGCUCU"
  result.value: 1.54
- mutation.name: "CCCGUC"
  result.value: 1.73
- mutation.name: "UCGAGU"
  result.value: 1.47
- mutation.name: "GGCCCU"
  result.value: 1.88
- mutation.name: "CGCUCA"
  result.value: 1.47
- mutation.name: "GAAACC"
  result.value: 1.72
- mutation.name: "UCGCGU"
  result.value: 1.66
- mutation.name: "CGAACC"
  result.value: 1.68
- mutation.name: "CGCACU"
  result.value: 1.48
- mutation.name: "CAAAGG"
  result.value: 1.59
- mutation.name: "CCUUAG"
  result.value: 1.64
- mutation.name: "AUGCGG"
  result.value: 1.74
- mutation.name: "GAAUCU"
  result.value: 1.7
- mutation.name: "AGUAAA"
  result.value: 1.41
- mutation.name: "AAACUG"
  result.value: 1.53
- mutation.name: "GCUAUC"
  result.value: 1.53
- mutation.name: "CGGUCU"
  result.value: 1.56
- mutation.name: "AGAUUC"
  result.value: 1.7
- mutation.name: "GACGUC"
  result.value: 1.67
- mutation.name: "CCCCAA"
  result.value: 1.59
- mutation.name: "CCGUGU"
  result.value: 1.66
- mutation.name: "GUUGCU"
  result.value: 1.7
- mutation.name: "CCCGCC"
  result.value: 1.8
- mutation.name: "AAUAAG"
  result.value: 1.52
- mutation.name: "ACCCUU"
  result.value: 1.66
- mutation.name: "GUUGCA"
  result.value: 1.81
- mutation.name: "GAAGGU"
  result.value: 1.58
- mutation.name: "UCUUAG"
  result.value: 1.66
- mutation.name: "GAGAUC"
  result.value: 1.71
- mutation.name: "UAGAGA"
  result.value: 1.51
- mutation.name: "ACCGUG"
  result.value: 1.57
- mutation.name: "CUCAGG"
  result.value: 1.8
- mutation.name: "AUCUCG"
  result.value: 1.76
- mutation.name: "UCCUUG"
  result.value: 1.74
- mutation.name: "UGAACC"
  result.value: 1.78
- mutation.name: "UAAAGC"
  result.value: 1.68
- mutation.name: "GUCAGU"
  result.value: 1.63
- mutation.name: "CUAAAA"
  result.value: 1.35
- mutation.name: "ACCAGG"
  result.value: 1.71
- mutation.name: "UUAAAC"
  result.value: 1.7
- mutation.name: "GGUCCC"
  result.value: 1.83
- mutation.name: "AGCCCC"
  result.value: 1.81
- mutation.name: "AAGUUG"
  result.value: 1.56
- mutation.name: "ACCCGA"
  result.value: 1.54
- mutation.name: "CAAUGC"
  result.value: 1.76
- mutation.name: "GAAUCG"
  result.value: 1.67
- mutation.name: "CGGGGG"
  result.value: 1.62
- mutation.name: "UUUCUC"
  result.value: 1.8
- mutation.name: "CCAUGG"
  result.value: 1.65
- mutation.name: "AUAAGU"
  result.value: 1.55
- mutation.name: "UACGCG"
  result.value: 1.81
- mutation.name: "AUGCGC"
  result.value: 1.73
- mutation.name: "GAGCGA"
  result.value: 1.74
- mutation.name: "ACUCAG"
  result.value: 1.61
- mutation.name: "AGUACU"
  result.value: 1.75
- mutation.name: "CGAUUU"
  result.value: 1.43
- mutation.name: "GGGGAA"
  result.value: 1.48
- mutation.name: "AAGGAU"
  result.value: 1.49
- mutation.name: "UCACAG"
  result.value: 1.67
- mutation.name: "UAAGAU"
  result.value: 1.6
- mutation.name: "UGCAAC"
  result.value: 1.73
- mutation.name: "UCUCUG"
  result.value: 1.72
